- system tested: PI3-kinase p110-delta/p85-alpha (Homo sapiens, UniProt O00329)
- Sequence (P27986 whole entry): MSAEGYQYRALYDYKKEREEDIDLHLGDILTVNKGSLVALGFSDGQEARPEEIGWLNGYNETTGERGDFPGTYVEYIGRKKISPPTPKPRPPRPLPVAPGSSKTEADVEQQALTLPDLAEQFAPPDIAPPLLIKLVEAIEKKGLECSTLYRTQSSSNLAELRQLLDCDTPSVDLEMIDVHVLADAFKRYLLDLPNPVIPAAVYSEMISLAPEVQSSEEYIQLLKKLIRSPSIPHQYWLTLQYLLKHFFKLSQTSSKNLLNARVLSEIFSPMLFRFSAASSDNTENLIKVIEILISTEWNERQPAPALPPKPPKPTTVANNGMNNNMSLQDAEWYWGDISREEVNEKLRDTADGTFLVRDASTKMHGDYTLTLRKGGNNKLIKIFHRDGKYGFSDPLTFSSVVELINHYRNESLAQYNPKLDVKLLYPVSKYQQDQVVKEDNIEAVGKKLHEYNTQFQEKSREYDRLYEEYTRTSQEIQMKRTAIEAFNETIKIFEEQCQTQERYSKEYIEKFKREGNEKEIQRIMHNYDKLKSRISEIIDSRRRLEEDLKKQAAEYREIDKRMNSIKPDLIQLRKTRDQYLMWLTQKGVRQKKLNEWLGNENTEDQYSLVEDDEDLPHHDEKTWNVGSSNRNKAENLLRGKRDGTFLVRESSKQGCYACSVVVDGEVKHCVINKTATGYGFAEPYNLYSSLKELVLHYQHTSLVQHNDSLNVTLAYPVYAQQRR
- Sequence (O00329 whole entry): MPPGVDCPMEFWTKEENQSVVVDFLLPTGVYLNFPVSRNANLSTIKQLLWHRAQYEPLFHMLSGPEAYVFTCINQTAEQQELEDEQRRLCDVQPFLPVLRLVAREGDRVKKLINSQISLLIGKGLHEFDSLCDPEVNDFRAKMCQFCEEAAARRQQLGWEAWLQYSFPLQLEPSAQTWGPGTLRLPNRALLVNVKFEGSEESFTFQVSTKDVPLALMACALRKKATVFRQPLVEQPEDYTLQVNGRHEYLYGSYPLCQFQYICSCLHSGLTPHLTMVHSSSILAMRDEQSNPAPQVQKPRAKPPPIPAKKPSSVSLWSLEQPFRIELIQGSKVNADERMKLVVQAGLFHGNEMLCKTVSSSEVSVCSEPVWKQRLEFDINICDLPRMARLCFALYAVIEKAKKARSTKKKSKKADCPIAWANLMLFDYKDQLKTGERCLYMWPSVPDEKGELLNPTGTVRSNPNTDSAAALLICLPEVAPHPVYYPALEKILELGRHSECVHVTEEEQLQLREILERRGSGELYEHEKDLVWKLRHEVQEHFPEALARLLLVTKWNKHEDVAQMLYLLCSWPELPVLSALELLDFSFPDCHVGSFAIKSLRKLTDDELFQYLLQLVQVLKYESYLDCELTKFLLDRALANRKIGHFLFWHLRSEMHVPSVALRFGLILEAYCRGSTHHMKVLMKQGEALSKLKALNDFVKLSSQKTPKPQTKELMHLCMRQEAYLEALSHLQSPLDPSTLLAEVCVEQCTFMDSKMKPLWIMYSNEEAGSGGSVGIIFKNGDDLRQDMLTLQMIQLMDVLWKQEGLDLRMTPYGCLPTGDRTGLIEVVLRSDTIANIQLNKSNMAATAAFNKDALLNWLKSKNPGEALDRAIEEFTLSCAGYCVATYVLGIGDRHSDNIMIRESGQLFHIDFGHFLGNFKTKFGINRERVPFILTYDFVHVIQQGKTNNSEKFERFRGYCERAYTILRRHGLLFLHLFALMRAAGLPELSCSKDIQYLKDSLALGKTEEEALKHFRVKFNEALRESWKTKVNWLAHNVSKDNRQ
- measurement notes: Inhibition of N-terminal His6-tagged recombinant full-length human p110delta/untagged recombinant full length p85alpha expressed in baculovirus infected Sf21 cells using phosphatidylinositol as substrate in presence of gamma-32P-ATP after 5 mins by thin layer chromatographic method
readout: IC50

[Q] So what does the record say about IC50 for `Cc1cccc2cc(Cn3nc(-c4cn[nH]c4)c4c(N)ncnc43)n(-c3ccccc3)c(=O)c12` ?
[A] < 100 nM

[Q] Could you do the same for `Cc1ccccc1-n1c(Cn2nc(-c3ccc4nc(N)ccc4c3)c3c(N)ncnc32)cc2cccc(C)c2c1=O` , please?
[A] < 100 nM

[Q] Could you do the same for `Cc1cccc2cc(Cn3nc(Br)c4c(N)ncnc43)n(-c3ccccc3F)c(=O)c12` , please?
[A] < 1000 nM

[Q] Could you do the same for Cc1cccc2cc(C(C)Nc3ncnc4[nH]cnc34)n(C3CCN(C)CC3)c(=O)c12 (stereo not drawn) , please?
[A] < 100 nM

[Q] Could you do the same for `Cc1cccc2cc([C@H](C)Nc3nc(Cl)nc4[nH]cnc34)n(C3CC3)c(=O)c12` , please?
[A] < 100 nM
